Below is a list of entries, each paired with its recorded %Inh value.
# Tested on: YANK1
# Construct: gene STK32A
# stated.conditions: concentration: 1 μM, replicates: in singlicate; n = 1;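 further: KINOMEscan kinase panel screen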
Just the number please, in %, no unit attached.

Here is how some compounds turned out for %Inh.
COc1cc2c(cc1OCCN1CCNCC1)ncc1c3ccc(C#N)cc3[nH]c21
5
FC(F)(F)c1ccc(/C=C/c2cncnc2Nc2ccc3[nH]c(Cc4ccccc4)nc3c2)cc1
0
COc1cc(Nc2nccc(N3CCC(NC(=O)c4cc5ccccc5s4)C3)n2)cc(OC)c1OC (centres unmarked)
13
Cn1cc(-c2ccc3c(c2)CCN3C(=O)Cc2cccc(Cl)c2)c2c(N)ncnc21
10
Cl.Cl.NCC(C(=O)Nc1cc(Br)c(-c2ccnc3[nH]ccc23)s1)c1ccccc1 (centres unmarked)
8
CCCCc1nn2ncccc2c1-c1ccnc(Nc2ccc(N3CCN(C)CC3)cc2)n1
78
C[C@@H](Oc1cc(-n2cnc3cc(-c4ccnc(NCCS(C)(=O)=O)c4)ccc32)sc1C(N)=O)c1ccccc1Cl
6
Clc1ccc(-c2nn3ncccc3c2-c2ccnc(Nc3ccc4c(c3)OCCO4)n2)cc1
0

Challenge: Give recorded %Inh. CCS(=O)(=O)c1ccc(OC)c(Nc2nccc(-c3c(-c4cccc(NC(=O)c5c(F)cccc5F)c4)nn4ncccc34)n2)c1
Response given: 0

Challenge: Give recorded %Inh. Cl.Cl.NCC(NCc1ccc(-c2ccnc3[nH]ccc23)s1)c1ccccc1 (centres unmarked)
Response given: 0

Challenge: Give recorded %Inh. O=C(Nc1n[nH]c2cc(-c3ccoc3)ccc12)C1CC1
Response given: 0

Challenge: Give recorded %Inh. NCCCC(NC(=O)c1cc(Br)c(-c2ccnc3[nH]ccc23)s1)c1ccccc1.O=C(O)C(F)(F)F.O=C(O)C(F)(F)F (centres unmarked)
Response given: 0

Challenge: Give recorded %Inh. COc1cc(Nc2nccc(-c3c(-c4cccc(NC(=O)c5c(F)cccc5F)c4)nn4ccccc34)n2)cc(OC)c1OC
Response given: 11

Challenge: Give recorded %Inh. COc1ccc(Nc2nccc(N3CCC(NC(=O)Nc4cccc(OC)c4)C3)n2)cc1 (centres unmarked)
Response given: 10

Challenge: Give recorded %Inh. CC(C)(C)c1ccc2nccc(Nc3cccc(O)c3)c2c1
Response given: 0

Challenge: Give recorded %Inh. COc1cc(Nc2nccc(N3CCC(NC(=O)Nc4cccc(C(C)=O)c4)C3)n2)cc(OC)c1OC (centres unmarked)
Response given: 14

Challenge: Give recorded %Inh. Nc1ncnc2c1nc(-c1ccccc1)n2-c1ccccc1
Response given: 3

Challenge: Give recorded %Inh. COc1cccc(-c2ccc3c(NC(=O)C4CC4)n[nH]c3n2)c1
Response given: 0

Challenge: Give recorded %Inh. CSc1cccc2c(-c3ccncn3)c(-c3ccc(F)cc3)nn12
Response given: 23

Challenge: Give recorded %Inh. c1ccc(Oc2ccc(Nc3ccnc4cc(-c5ccc(CNCCN6CCOCC6)o5)ccc34)cc2)nc1
Response given: 0

----------
# Test system: MAP4K2
# stated.conditions: concentration: 1 μM, replicates: in singlicate; n = 1
# note: exactly 10% is not below, so it is n; use y for %Inh strictly under it

Example results:
CC(=O)Nc1nc2cnc(Nc3cc(NC(=O)c4cccc(C5(C#N)CC5)c4Cl)ccc3C)nc2s1
n
CN(c1ccc(NC(=O)Nc2cc(C(F)(F)F)ccc2F)cc1)c1ccnc(Nc2ccc(S(N)(=O)=O)cc2)n1 [GW809893]
n
Cl.Cl.NCC(C(=O)Nc1cc(Br)c(-c2ccnc3[nH]ccc23)s1)c1ccccc1 (centres unmarked) [GSK1269851]
n
CCCCc1nn2ncccc2c1-c1ccnc(Nc2ccc(N3CCN(C)CC3)cc2)n1 [GW684941]
y
COc1cc(Nc2nccc(-c3c(-c4cccc(NC(=O)c5c(F)cccc5F)c4)nn4ncccc34)n2)cc(OC)c1OC [GSK327238]
n
O=c1[nH]cc(-c2ccc(N3CCOCC3)cc2)c2sc(-c3cn[nH]c3)cc12 [GSK2276055]
n

Challenge: Would you kindly verify if %Inh of CC(C)(C)c1ccc2nccc(Nc3cccc(O)c3)c2c1 [GW856795] is strictly less than 10%?
Response given: n

Challenge: Would you kindly verify if %Inh of Cc1ccc(C)c(NC(=O)NC2CCN(c3ccnc(Nc4ccc(F)cc4)n3)C2)c1 (centres unmarked) [GSK1379720] is strictly less than 10%?
Response given: y
